# systemName: recombinant human-MT1 receptor (Homo sapiens)
# Construct: expressed in transfected cells; host or cells: unnamed cell line stably overexpressing human MT1, co-expressing mitochondrial apoaequorin and Gα16
# Sequence (P48039 whole entry): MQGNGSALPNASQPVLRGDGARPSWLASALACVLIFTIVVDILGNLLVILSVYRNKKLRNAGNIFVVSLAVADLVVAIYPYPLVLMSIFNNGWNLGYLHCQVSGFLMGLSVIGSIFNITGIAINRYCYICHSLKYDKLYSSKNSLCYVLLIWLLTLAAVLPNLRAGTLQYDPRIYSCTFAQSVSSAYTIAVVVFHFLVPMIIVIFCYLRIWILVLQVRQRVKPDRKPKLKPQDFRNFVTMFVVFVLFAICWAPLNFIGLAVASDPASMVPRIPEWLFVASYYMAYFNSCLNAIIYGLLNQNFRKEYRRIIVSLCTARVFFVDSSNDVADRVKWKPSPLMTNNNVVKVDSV
# measurementProtocol: In vitro MT1 screening, agonist activity (AequoScreen aequorin luminescence)
# Assay type: cell-based
# measurementParameters: 1 nM compound; percentage of activity relative to the reference agonist at the EC100 concentration; read-out: Agonism percentages of MT1, 1 nM
# Experimental: To proceed with compound screening over MT1 receptor, a cell line characterised by a stable overexpression of recombinant human-MT1 receptor was used. This line co-expresses mitochondrial apoaequorin and subunit Gα16. […] Agonist activity was calculated as percentage of activity relative to the reference agonist at the EC100 concentration. Activity of antagonists was expressed as the inhibition percentage over the activity of reference agonist at its EC80, concentration.
property: activation at 0.001 µM (%)

Answered examples (10):
Item: CC(C)CC(=O)NCC(C)c1c[nH]c2cc(F)c3c(c12)CC(C)O3 (stereo not shown) | activation at 0.001 µM: 20.9

Documented activation at 0.001 µM of CCCC(=O)NCC(C)c1c[nH]c2cc(F)c3c(c12)CC(C)O3 (stereo not shown) : 27.8

Form: compound = CC1Cc2c(c(F)cc3[nH]cc(C(C)CNC(=O)C(F)(F)F)c23)O1 (stereo not shown) ; activation at 0.001 µM = 36.9

Query CC1Cc2c(c(F)cc3[nH]cc(CCNC(=O)C4CC4)c23)O1 (stereo not shown) yields activation at 0.001 µM of 33.8

Lab note: measured activation at 0.001 µM of CC(=O)NCC(C)c1c[nH]c2cc(F)c3c(c12)CC(C)O3 (stereo not shown) was 43.2

Per the record, CCOC(=O)NCC(C)c1c[nH]c2cc(F)c3c(c12)CC(C)O3 (stereo not shown) has activation at 0.001 µM of 13.1

Query `CC(=O)NCCc1c[nH]c2cc(F)c3c(c12)CCO3` yields activation at 0.001 µM of 37.7

Per the record, `CCC(=O)NCCc1c[nH]c2cc(F)c3c(c12)CCO3` has activation at 0.001 µM of 55.1

The compound identified as CC1Cc2c(c(F)cc3[nH]cc(C(C)CNC(=O)C(C)(C)C)c23)O1 (stereo not shown) registered its activation at 0.001 µM at 6.6

Consider CC1Cc2c(c(F)cc3[nH]cc(CCNC(=O)C(C)C)c23)O1 (stereo not shown) . Its measured activation at 0.001 µM is 25.7

[P] O=C(NCCc1c[nH]c2cc(F)c3c(c12)CCO3)C1CC1
[Q] CCNC(=O)NCC(C)c1c[nH]c2cc(F)c3c(c12)CC(C)O3 (stereo not shown)
Hi there, can you help? I need to know whether P or Q has lower measured activation at 0.001 µM. Answer by quoting the chosen item's label.
Q
(Q: 19.7%, P: 43.8%)
